Test system: Nucleic Acid
Experiment: Inhibition of SV40 DNA replication at 20 uM
Type: nucleic-acid assay
Settings: Betapolyomavirus macacae
result-type: inhibition (%)

Examples with their reported inhibition follow.
molecule: C#C/C=C\CCCCCCCCCCCCCCCC/C=C\CCCC/C=C\CCCCC#C[C@@H](O)C#CCCCCCC/C=C/[C@H](O)C#C
inhibition / %: 21

molecule: C#C/C=C\CCCCCCCCCCCCCCC(O)/C=C/CCC/C=C\CCCCC#C[C@H](O)C#CCCCCCC/C=C/[C@H](O)C#C (stereo not given in full)
inhibition / %: 8

molecule: C#C/C=C\CCCCCCCCCCCCC/C=C/C(O)CCCC/C=C\CCCCC#C[C@H](O)C#CCCCCCC/C=C/[C@H](O)C#C (stereo not given in full)
inhibition / %: 8

I = C#CCCCCCCCCCCCCCCCCC/C=C\CCCC/C=C\CCCCC#C[C@@H](O)C#CCCCCCCCC[C@@H](O)C#C
II = C#C/C=C\CCCCCCCCCCCCCC/C=C\CCCCC(O)/C=C/CCCC#C[C@H](O)C#CCCCCCC/C=C/[C@H](O)C#C (stereo not given in full)
query: Of I and II , whose reported inhibition is the larger number? Returns: label corresponding to the selected item.
result: I
(I: 16%, II: 9%)

* * *

Test system: Nucleic Acid
Assay: Inhibition of SV40 DNA replication at 40 uM
Type: nucleic-acid assay
Conditions: Betapolyomavirus macacae
result-type: inhibition (%)

Check out these entries, answers already filled in.
compound: C#C/C=C\CCCCCCCCCCCCCCCC/C=C\CCCC/C=C\CCCCC#C[C@@H](O)C#CCCCCCC/C=C/[C@H](O)C#C
inhibition / %: 38
--
compound: C#C/C=C\CCCCCCCCCCCCC/C=C/C(O)CCCC/C=C\CCCCC#C[C@H](O)C#CCCCCCC/C=C/[C@H](O)C#C (stereo not given in full)
inhibition / %: 55
--
compound: C#CCCCCCCCCCCCCCCCCC/C=C\CCCC/C=C\CCCCC#C[C@@H](O)C#CCCCCCCCC[C@@H](O)C#C [PETROTETRAYNDIOL F]
inhibition / %: 48

I = C#C/C=C\CCCCCCCCCCCCCCC(O)/C=C/CCC/C=C\CCCCC#C[C@H](O)C#CCCCCCC/C=C/[C@H](O)C#C (stereo not given in full)
II = C#C/C=C\CCCCCCCCCCCCCC/C=C\CCCCC(O)/C=C/CCCC#C[C@H](O)C#CCCCCCC/C=C/[C@H](O)C#C (stereo not given in full)
query: So which one has the bigger inhibition here, I or II ? Kindly give the label for the entry you pick.
result: I

* * *

System: HCT-15
Test: Cytotoxicity against human HCT15 cells
Format: functional
Conditions: read-out: ED50 (the source's name)
result-type: EC50 (µg/mL)
Write down the numeric answer in µg/mL and omit the unit.

query: For the compound C#C/C=C\CCCCCCCCCCCCCCCC/C=C\CCCC/C=C\CCCCC#C[C@@H](O)C#CCCCCCC/C=C/[C@H](O)C#C , what EC50 is on record?
result: 3.9

query: Which value of EC50 has been reported for C#CCCCCCCCCCCCCCCCCC/C=C\CCCC/C=C\CCCCC#C[C@@H](O)C#CCCCCCCCC[C@@H](O)C#C [PETROTETRAYNDIOL F] in the records?
result: 3.4

query: Reported EC50 for C#C/C=C\CCCCCCCCCCCCCCC(O)/C=C/CCC/C=C\CCCCC#C[C@H](O)C#CCCCCCC/C=C/[C@H](O)C#C (stereo not given in full) : what is it?
result: 1.4

query: Looking for the measured EC50 of C#C/C=C\CCCCCCCCCCCCCC/C=C\CCCCC(O)/C=C/CCCC#C[C@H](O)C#CCCCCCC/C=C/[C@H](O)C#C (stereo not given in full) , can you help?
result: 4

query: What EC50 value was documented for this compound, C#C/C=C\CCCCCCCCCCCCC/C=C/C(O)CCCC/C=C\CCCCC#C[C@H](O)C#CCCCCCC/C=C/[C@H](O)C#C (stereo not given in full) ?
result: 1.4
